compounds and their reported inhibition
# System: Botulinum neurotoxin type F light chain protease (Clostridium botulinum)
# METHOD_NOTES: Botulinum neurotoxin type F light chain protease inhibition, multiplex microsphere flow cytometry, validation set (AID 588459)
# SETTINGS: multiplex microsphere protease substrate cleavage assay, at 10 µM, hits give high values
Express it in %; write the number only.

Study these solved cases before continuing.
[[record]]
compound = "CC[N+]1(C)CC2CCC(C)(C1)C2(C)C (centres undefined)"
property_label = "inhibition"
result_value = 1.1

[[record]]
compound = "O=C(O)c1cc(-c2ccccc2)nc2ccccc12"
property_label = "inhibition"
result_value = -1.1

[[record]]
compound = "CCn1cc(C(=O)O)c(=O)c2cc(F)c(N3CCNCC3)cc21"
property_label = "inhibition"
result_value = -0.1


## Task Which inhibition is reported for this compound? CN(C)CCOCCOc1ccc(Cl)cc1Br
## Result 6.4

## Task Which inhibition is reported for this compound? CN1[C@@H]2CC[C@H]1CC(OC(=O)C1C=Nc3ccccc31)C2 (some centres undefined)
## Result 1.4

## Task Which inhibition is reported for this compound? CC(C)OC(=O)C1C2C=CC3(CN(CC4CCCO4)C(=O)C13)O2 (centres undefined)
## Result 0.2

## Task Which inhibition is reported for this compound? COc1ccc(CCNC(=O)C(=O)Nc2ccc3c(c2)OCO3)cc1OC
## Result 1.8

## Task Which inhibition is reported for this compound? COc1cc(C2C(C(=O)c3ccc(C)o3)=C(O)C(=O)N2Cc2cccnc2)ccc1O (centres undefined)
## Result 1.8

## Task Which inhibition is reported for this compound? O=C(NCC1CCCO1)c1ccc(OC2CCN(C(=O)C3CC3)CC2)cc1 (centres undefined)
## Result 0.8

## Task Which inhibition is reported for this compound? N=c1ccn(CC(=O)NC(N)=O)c2ccccc12
## Result 3.3

## Task Which inhibition is reported for this compound? C=CCOc1ccc(C(=O)CC)cc1OC
## Result 0.6

## Task Which inhibition is reported for this compound? CCOC(=O)c1ncn2c1CN(C)C(=O)c1cc(F)ccc1-2
## Result -1.4

## Task Which inhibition is reported for this compound? Cc1c2ccncc2c(C)c2c1[nH]c1ccccc12
## Result 2.4

## Task Which inhibition is reported for this compound? O=c1oc2c(CN3CCCCC3)c(O)ccc2c2c1CCCCC2
## Result 4.3

## Task Which inhibition is reported for this compound? O=C(Nc1ccc(F)c([N+](=O)[O-])c1)c1ccc2c(c1)OCCO2
## Result -3.7

## Task Which inhibition is reported for this compound? Cc1coc2c1c(C)cc1oc(=O)c(Cc3ccccc3)c(C)c12
## Result 1.9

## Task Which inhibition is reported for this compound? COc1c(O)ccc2c1CN1CCc3cc4c(cc3C1C2)OCO4 (centres undefined)
## Result -8.1

## Task Which inhibition is reported for this compound? COc1ccc2cc(-c3nc4ccccc4n3C)c(=O)oc2c1
## Result 2

## Task Which inhibition is reported for this compound? O=C(CN1C(=O)c2ccccc2S1(=O)=O)Nc1ccccc1
## Result 2.3

## Task Which inhibition is reported for this compound? O=C(Nc1ccccc1C(=O)N1CCCCCC1)c1ccccc1Cl
## Result -2.3

## Task Which inhibition is reported for this compound? CN1C2CCC1CC(OC(=O)CCN1CCCC1)C2 (centres undefined)
## Result 3.2

## Task Which inhibition is reported for this compound? COc1ccc(N2C(=O)[C@@H]3Cc4ccccc4CN3C2=O)cc1
## Result 1.7

## Task Which inhibition is reported for this compound? COC(=O)C1=C(C)N(Cc2ccco2)C(=O)/C1=C\c1ccc([N+](=O)[O-])cc1
## Result 1

## Task Which inhibition is reported for this compound? CCOC(=O)[C@H](CCc1ccccc1)N[C@@H](C)C(=O)N1CCC[C@H]1C(=O)O
## Result 3.5
